protocolText: NCI Yeast Anticancer Drug Screen. Data for the wt2 strain (AID 169);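 further: 0% = growth of vehicle-treated yeast cultures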
appliedConditions: S. cerevisiae wt2 strain growth inhibition; at 11.0 µM; stronger effect = higher value
The panel holds about 79,000 compounds, 15% with a hit somewhere; the sample as a whole holds those more often.
valueType: growth inhibition (%)
Reply numerically in %, unit not repeated.

Recorded results for 4 compounds are shown here.
* COC1=CCC23C(=O)C=CC(=O)C2(C1)C(=O)c1ccccc1C3=O (stereo not given) | 23
* S=C1N(c2ccc(Cl)cc2)C2=C(N=Nc3ccccc3)C(=Nc3ccccc3S2)N1c1ccccn1 | 4
* COc1ccc2nc3cccc([N+](=O)[O-])c3c(NCCCCCC(=O)O)c2c1 | 94
* CCCCN(CCC#N)c1ccc(/C=C/c2ccnc3ccccc23)cc1 | -1

// next item, growth inhibition requested
Exercise: # input compound: O=C(Cc1ccccc1)NN1C(=O)C(Cl)C1c1cc(Br)cc(Br)c1O (stereo not given) ; wanted: its growth inhibition
Key: 88

----------
Overview of recorded growth inhibition for various compounds
protocolText: NCI Yeast Anticancer Drug Screen. Data for the rad14 strain (AID 159);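 further: 0% = growth of vehicle-treated control cultures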
appliedConditions: S. cerevisiae rad14 strain growth inhibition; at 1.2 µM; stronger effect = higher value
Experimental: Growth inhibition of yeast strains with defined genetic alterations is measured as a screen for potential anti-cancer activity. Selected strains with alterations in DNA damage repair or cell cycle control were exposed to compounds and growth inhibition was measured relative to vehicle treated controls. The strain used in this assay is rad14
About 79,000 compounds went through this panel and 15% of them were active in at least one assay; those are over-represented in the sample as a whole.
Please give a number only; it is taken to be in %.

Use the examples below as a reference point.
- O=[N+]([O-])[O][Sn]([O][Sn]([O][N+](=O)[O-])([c]1ccccc1)[c]1ccccc1)([c]1ccccc1)[c]1ccccc1: 0
- COc1cc(NCCCCNCC(C)(C)C)c2ncccc2c1: -1

Exercise: Entry CCCCCCCC/C=C\CCCCCCCCN has what growth inhibition?
Key: -22

Exercise: Also check CCCCCCCCCCCCCCCCCCN(C)C(COC)COP(=O)([O-])OCC[N+](C)(C)C (stereo not given)
Key: -69

Exercise: Input CCOC(=O)Nc1ccc(C)c(NC(=O)OCC)c1
Key: 3

----------
protocolText: NCI Yeast Anticancer Drug Screen. Data for the mgt1 strain (AID 153)
appliedConditions: S. cerevisiae mgt1 mutant growth inhibition; at 100.0 µM; stronger effect = higher value
Compounds without any hit were thinned out: in the full panel of roughly 79,000, 15% have a hit.
Note to self: values exactly at 60% are Fulfilled. So growth inhibition at or above 60% is Fulfilled, below is Not fulfilled.

- CCC(=O)C1=C(O)c2cc(OC)ccc2CC1C(=O)OC (configuration not stated): Not fulfilled
- Cc1cccc(C)c1NC(=O)C(C#N)C1=C(Cl)C(=O)c2ccccc2C1=O (configuration not stated): Fulfilled
- COc1ccc(N=c2cc(-c3ccccc3)oc3ccccc23)cc1: Not fulfilled
- COc1cc([C@@H]2c3cc4c(cc3[C@@H](NC(=O)NO)[C@H]3COC(=O)[C@H]23)OCO4)cc(OC)c1O: Not fulfilled
- S=C(NCc1ccccn1)N/N=C/c1ccccn1: Fulfilled
- O=C1SS(=O)c2ccccc21 (configuration not stated): Fulfilled
- COc1ccc2c(c1)CCCC(Br)C2=O (configuration not stated): Fulfilled
- O=[N+]([O-])c1ccc(/C=C\c2ccc3c(c2)OCO3)c([N+](=O)[O-])c1: Not fulfilled
- CC(C)NCCCNc1c2ccccc2nc2cccc([N+](=O)[O-])c12: Fulfilled
- CNC(=O)OCc1c(COC(=O)NC)c(C)n(-c2ccc(Br)cc2)c1C: Fulfilled

Exercise: Form field: growth inhibition at least 60%? Entry: CC1=CN2C(c3ccccc3)=NON(c3ccc(C)cn3)C2C=C1 (configuration not stated)
Key: Not fulfilled

Exercise: Item: COc1cccc(/C=C2\S/C(=N/Nc3nc(-c4ccc([N+](=O)[O-])cc4)cs3)NC2=O)c1O
Key: Not fulfilled

Exercise: Another molecule to look at: O=[N+]([O-])c1ccc(S(=O)(=O)Cc2ccccc2)c([N+](=O)[O-])c1
Key: Fulfilled

Exercise: Proceed to O=C1Oc2ccccc2C(=O)/C1=C/N1C(=O)N/C(=C\c2ccccc2Br)C1=O
Key: Fulfilled

Exercise: What would you report for CC(=O)N1C=Cc2c(c(C)c3c([nH]c4ccccc43)c2C)C1 ?
Key: Fulfilled

Exercise: Next up: Oc1ccc(N=Nc2ccc(Cl)cc2)cc1
Key: Fulfilled

Exercise: Also check O=C(CCCN1CCC(Nc2ccc(F)cc2)(c2nnnn2C2CCCCC2)CC1)c1ccc(F)cc1
Key: Fulfilled

Exercise: Repeat with CC(C)(Br)C(=O)/C=C/c1ccccc1
Key: Not fulfilled
